System: PC3 cells
Experiment: EB1 Comet (microtubule disruption) assay
Type: cell-based, human
Conditions: Homo sapiens, PC-3, 1 h, 1 hour treatment, read-out: EB1 pLAC (converted)
Readout kind: minimal effective concentration (µM)
Lab book: enter the figure in µM, no units written.

## Task Return value of minimal effective concentration for input CCc1cc2ccc(C(C)(C#N)Cc3ccc4c(c3)OCCO4)cc2[nH]c1=O (centres unmarked) , no commentary.
## Result 1

## Task Determine its reported minimal effective concentration: CCc1cc2ccc(C(C)(C#N)CCOc3ccccc3C)cc2[nH]c1=O (centres unmarked)
## Result 0.316

## Task Identify the reported minimal effective concentration for the following entry. CCc1cc2c(OC)cc(C(C)(C#N)Cc3nc(OC)cc(OC)n3)cc2[nH]c1=O (centres unmarked) [Compound 229]
## Result 3.16

## Task Note down minimal effective concentration recorded for CCc1cc2ccc(C(C#N)(CC)Cc3cccc(F)c3)cc2[nH]c1=O (centres unmarked)
## Result 3.16

## Task Identify the reported minimal effective concentration for the following entry. CCc1cc2ccc(C(C)(C#N)Cc3ccc(F)c(F)c3)cc2[nH]c1=O (centres unmarked)
## Result 0.316

## Task Provide only the value of recorded minimal effective concentration for CCc1cc2ccc(C(C#N)(CC)Cc3nc(OC)cc(OC)n3)cc2[nH]c1=O (centres unmarked)
## Result 0.316

## Task Give the reported minimal effective concentration for this compound. CCc1cc2ccc(C(C)(C#N)Cc3cccc(OC(F)(F)F)c3)cc2[nH]c1=O (centres unmarked)
## Result 0.1

## Task Please report the measured minimal effective concentration for CCc1cc2ccc(C(C)(C#N)Cc3cccc(Cl)c3)cc2[nH]c1=O (centres unmarked)
## Result 0.1

## Task Consider the compound CCc1cc2ccc(C(C)(C#N)CCOc3ccc(F)cc3)cc2[nH]c1=O (centres unmarked) and give its recorded minimal effective concentration.
## Result 0.316

## Task Retrieve minimal effective concentration measured for CCc1cc2ccc(C(C)(C#N)Cc3ccnc(Cl)c3)cc2[nH]c1=O (centres unmarked) and print it.
## Result 10

## Task Note down minimal effective concentration recorded for CCc1cnc(OCCC(C)(C#N)c2ccc3cc(CC)c(=O)[nH]c3c2)nc1 (centres unmarked)
## Result 10

## Task Read off the recorded minimal effective concentration for CCc1cc2ccc(C(C)(C#N)Cc3ccc4ccccc4n3)cc2[nH]c1=O (centres unmarked)
## Result 1

## Task Annotate the compound CCc1cc2ccc(C(C)(C#N)Cc3cccc(-c4cnn(C)c4)c3)cc2[nH]c1=O (centres unmarked) with its measured minimal effective concentration.
## Result 3.16

## Task Given the compound CCc1cc2ccc(C(C)(C#N)CCOc3ccc(OC)cc3)cc2[nH]c1=O (centres unmarked) , write its reported minimal effective concentration.
## Result 1

## Task Please indicate minimal effective concentration recorded for CCc1cc2ccc(C(C)(C#N)Cc3nc(C#N)cc(N(C)C)n3)cc2[nH]c1=O (centres unmarked)
## Result 0.316

## Task Provide measured minimal effective concentration value, entry: CCc1cc2ccc(C(C)(C#N)Cc3cccc(C#CCOC)c3)cc2[nH]c1=O (centres unmarked)
## Result 0.1

* * *

Tested on: PC-3 cells
Assay: Antiproliferative activity, Alamar Blue assay, PC-3 cells
Format: cell-based, human
Settings: Homo sapiens, PC-3, PC3 cells, Alamar Blue; read-out: PC3 antiproliferative activity pIC50 (converted)
Method: Human prostate cancer PC-3 cells obtained from the ATCC were cultured in HAM′S F12 medium supplemented with 1 mM Sodium Pyruvate, 1.5 g/L Sodium Bicarbonate, 50 μg/ml gentamicin, non-essential amino acids and 10% fetal calf serum. […] The antiproliferative activity was calculated as percentage of remaining viable cells in treated versus control (untreated cells) conditions. […] Herein the effects of test compounds are expressed as pIC50 (the negative log value of the IC50-value) (see Table 2).
Readout kind: IC50 (nM)
Field: numeric (nM). Do not append units.

Consider the following illustrative entries.
Compound: CCc1cc2cc(F)c(C(C)(C#N)Cc3cccc(C#N)c3)cc2[nH]c1=O (centres unmarked)
Study system: PC-3 cells
Measured: 1000

Compound: CCc1cc2ccc(C(C)(C#N)Cc3cc(Cl)nc(C)n3)cc2[nH]c1=O (centres unmarked)
Study system: PC-3 cells
Measured: 631

Compound: CCc1cc2ccc(C(C)(C#N)Cc3cccc(C#C[Si](C)(C)C)n3)cc2[nH]c1=O (centres unmarked)
Study system: PC-3 cells
Measured: 501

Compound: CCc1cc2ccc([C@](C)(C#N)Cc3cccc(C#CCO)c3)cc2[nH]c1=O (single isomer, unassigned)
Study system: PC-3 cells
Measured: 100

Compound: CCc1cc2ccc(C(C)(C#N)Cc3cccc(OCCOC)n3)cc2[nH]c1=O (centres unmarked)
Study system: PC-3 cells
Measured: 2510

## Task Give me measured IC50, please, for this compound: CCc1cc2c(OC)cc(C(C)(C#N)Cc3nc(OC)cc(OC)n3)cc2[nH]c1=O (single isomer, unassigned) [Compound 230]
## Result 2000

## Task Check the records and state IC50 for C#Cc1cccc(C[C@](C)(C#N)c2ccc3cc(CC)c(=O)[nH]c3c2)c1
## Result 10000

## Task Could you please provide reported IC50 for CCc1cc2ccc(C(C)(C#N)Cc3cccc(C(=O)OC(C)C)c3)cc2[nH]c1=O (centres unmarked) ? Thanks!
## Result 251
